Hello, the source for this data is patent US12145913B2, in case you need it.

- Assay explanation: Solubility of compound 174 in DI water
- Format: physicochemical
- Measurement parameters: thermodynamic from solid, 2 determinations, read-out: Estimated solubility
- Procedure: Into a 1 dram vial was added a sample of compound 174. DI water was added until the solid was fully dissolved. Solubility was estimated from the amount of solid per mL of water added. Estimated solubility ˜30 mg/mL (2 determinations).
Measured parameter: solubility

Noted for Cc1cc(NCCCN(C)C)nc(NC(=O)Nc2ccc(Cl)c(Cl)c2)n1 : its solubility reads ~30 mg/mL

###

- Tested on: GBM4 human glioblastoma cells
- Assay explanation: GBM4 viability assay (Cell Titer Glo)
- Format: cell-based
- Measurement parameters: Table 3, GBM4 cells, read-out: GBM4 IC50 (Cytotoxicity)
Measured parameter: IC50
Put your answer as a value accompanied by its unit after it.

Noted for CCNc1cc(C)nc(NC(=O)Nc2ccc3ccccc3c2)n1 : its IC50 reads 60 nM

Noted for CC(=O)NCCNc1cc(C)nc(NC(=O)Nc2ccc3ccccc3c2)n1 : its IC50 reads 140 nM

Noted for Cc1cc(NCCNS(C)(=O)=O)nc(NC(=O)Nc2ccc3ccccc3c2)n1 : its IC50 reads 40 nM

Noted for Cc1cc(NCCCN(C)C)nc(NC(=O)Nc2ccc(Cl)c(Cl)c2)n1 : its IC50 reads 240 nM
